molecular target: T1, free FIXa (activated Factor IX) (human, UniProt P00740 47-191; P00740 227-461); assay: BLI; class meaning: paragraph 914
T1 construct: BLI antigen bought from Haematologic Technologies (HCIXA-0050); also called factor IXa
PROPERTY_NAME: binding result

[[record]]
binder = "BIIB-9-1264 (antibody, V domains shown, IgG) VH: QVQLVQSGAEVKKPGASVKVSCKASGYTFTSYYMHWVRQAPGQGLEWMGIINPSGGSTSYAQKFQGRVTMTRDTSTSTVYMELSSLRSEDTAVYYCARDGDSSVYAFDYWGQGTLVTVSS VL: DIQMTQSPSSLSASVGDRVTITCQASQDITNYLNWYQQKPGKAPKLLIYDASNLETGVPSRFSGSGSGTDFTFTISSLQPEDIATYYCQQVDDYPFTFGGGTKVEIK"
property_name = "binding result"
result = "binds"

[[record]]
binder = "BIIB-9-445 (antibody, V domains shown, IgG) VH: QVQLVQSGAEVKKPGASVKVSCKASGYTFTSYYIHWVRQAPGQGLEWMGIINPSGGSTSYAQKFQGRVTMTRDTSTSTVYMELSSLRSEDTAVYYCARDVGQDYWFDLWGRGTLVTVSS VL: EIVMTQSPATLSVSPGERATLSCRASQSVSSNLAWYQQKPGQAPRLLIYSASTRATGIPARFSGSGSGTEFTLTISSLQSEDFAVYYCQQYDNFPFTFGGGTKVEIK"
property_name = "binding result"
result = "binds"

[[record]]
binder = "BIIB-9-1284 (antibody, V domains shown, IgG) VH: QVQLVQSGAEVKKPGASVKVSCKASGYTFTSYYMVWVRQAPGQGLEWMGIINPSGGSTSYAQKFQGRVTMTRDTSTSTVYMELSSLRSEDTAVYYCARVPTYRYSYLAFDIWGQGTMVTVSS VL: EIVLTQSPATLSVSPGERATLSCRASQSVGSNLAWYQQKPGQAPRLLIYGASTRATGIPARFSGSGSGTEFTLTISSLQSEDFAVYYCQQHNHLPITFGGGTKVEIK"
property_name = "binding result"
result = "binds"

